Overview of recorded MIC for various compounds
- System: Bacillus cereus
- Experiment: Antibacterial activity against Bacillus cereus ATCC 11788 after 24 hrs
- Type: functional
- Test parameters: ATCC 11788, 24 h
Positions of bridges follow the written chain, without caps; N, C: chain ends. Non-standard residues stand in square brackets, D forms with d. Residues, ends and D or L forms follow the SMILES beside them. dNMeF = CN[C@H](Cc1ccccc1)C(=O)O
Write the number in µg/mL without appending the unit.

Compound	Reported endpoint	Value observed
CC[C@@H](C)[C@@H](NC(=O)[C@@H](CCCNC(=N)N)NC(=O)[C@H](CO)NC(=O)[C@@H](NC(=O)[C@@H](Cc1ccccc1)NC)[C@@H](C)CC)C(=O)N[C@H](C(=O)N[C@@H](CO)C(=O)N[C@H]1C(=O)N[C@@H](C)C(=O)N[C@@H](CC(C)C)C(=O)N[C@@H]([C@@H](C)CC)C(=O)O[C@H]1C)[C@@H](C)CC	MIC	0.5

In: Note MIC for the compound shown: CC[C@@H](C)[C@@H](NC(=O)[C@@H](CCCNC(=N)N)NC(=O)[C@H](CCCNC(=N)N)NC(=O)[C@@H](NC(=O)[C@@H](Cc1ccccc1)NC)[C@@H](C)CC)C(=O)N[C@H](C(=O)N[C@@H](CO)C(=O)N[C@H]1C(=O)N[C@@H](CCCNC(=N)N)C(=O)N[C@@H](CC(C)C)C(=O)N[C@@H]([C@@H](C)CC)C(=O)O[C@H]1C)[C@@H](C)CC (H-[dNMeF]IR[dR][dI]IS[dT]RLI; ester 8-C)
Out: 1

In: Name the recorded MIC of the item CC[C@@H](C)[C@@H](NC(=O)[C@@H](CCC(N)=O)NC(=O)[C@H](CCCNC(=N)N)NC(=O)[C@@H](NC(=O)[C@@H](Cc1ccccc1)NC)[C@@H](C)CC)C(=O)N[C@H](C(=O)N[C@@H](CO)C(=O)N[C@H]1C(=O)N[C@@H](C)C(=O)N[C@@H]([C@@H](C)CC)C(=O)N[C@@H]([C@@H](C)CC)C(=O)O[C@H]1C)[C@@H](C)CC in your answer.
Out: 0.125

These data points were gathered from ChEMBL document CHEMBL4020828.
